These entries and their values trace back to paper PMC8000592.

- MEASUREMENT_TARGET: meprin α (Homo sapiens, UniProt Q16819)
- Sequence (Q16819 66-593 limits assumed): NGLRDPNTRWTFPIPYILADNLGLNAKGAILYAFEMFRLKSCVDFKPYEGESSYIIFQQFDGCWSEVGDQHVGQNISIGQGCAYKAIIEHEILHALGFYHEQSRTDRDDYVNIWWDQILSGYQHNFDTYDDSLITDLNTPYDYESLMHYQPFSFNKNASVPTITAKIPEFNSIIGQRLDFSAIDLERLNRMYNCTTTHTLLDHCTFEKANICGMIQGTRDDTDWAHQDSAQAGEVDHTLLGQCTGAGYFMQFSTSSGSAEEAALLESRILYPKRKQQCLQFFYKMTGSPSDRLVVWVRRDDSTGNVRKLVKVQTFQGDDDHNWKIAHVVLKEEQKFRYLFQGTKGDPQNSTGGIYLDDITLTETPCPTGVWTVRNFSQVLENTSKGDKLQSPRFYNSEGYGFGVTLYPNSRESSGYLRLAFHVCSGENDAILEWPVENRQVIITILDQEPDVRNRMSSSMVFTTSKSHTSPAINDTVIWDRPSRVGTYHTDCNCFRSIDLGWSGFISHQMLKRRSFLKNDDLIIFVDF
- PROTOCOL_DETAILS: Meprin α assay, fluorogenic substrate (Mca)-YVADAPK-(K-ε-Dnp), 384 and 1536 well plate formats
- Assay type: biochemical
- CONDITION_SUMMARY: Meprin α 1536 wpf; read-out: IC50
MEASURED_QUANTITY: pIC50
For clarity, pIC50 is expressed as the negative log10 of concentration in mol/L.

Look up pIC50 with meprin α (Homo sapiens, UniProt Q16819) for this molecule: `CCCCC[C@H](CC(=O)NO)C(=O)N[C@H](C(=O)N1CCC[C@H]1CO)C(C)C`
8.24
